Biological target: T1, cynomolgus soluble urokinase plasminogen activator receptor (suPAR) (cynomolgus, UniProt Q9GK78 23-303, limits assumed)
T1 construct: Target antigen of the off-rate screen; also called cynomolgus uPAR; cynomolgus suPAR
T1 sequence (Q9GK78 23-303 limits assumed): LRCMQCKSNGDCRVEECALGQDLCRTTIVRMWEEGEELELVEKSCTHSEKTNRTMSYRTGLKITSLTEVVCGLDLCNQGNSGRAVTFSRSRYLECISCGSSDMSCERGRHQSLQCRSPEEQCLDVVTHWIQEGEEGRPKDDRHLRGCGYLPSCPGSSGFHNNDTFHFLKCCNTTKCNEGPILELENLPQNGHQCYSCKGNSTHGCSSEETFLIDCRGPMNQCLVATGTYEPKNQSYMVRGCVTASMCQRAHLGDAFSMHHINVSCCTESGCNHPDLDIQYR
Experiment: off-rate (kdis) screen of scFv clones, biosensor (Octet)

{"columns": ["Binder", "koff, s⁻¹"],
 "data": [
  ["suPAR_DB01_A10 (scFv, V domains shown, screened as scFv) VH: QVQLVQSGAEVKKPGASVKVSCKASGYTFSNYYMHWVRQAPGQGLEWMGWIDHENGNTIYDQKFQGRVTMTRDTSTSTVYMELSSLRSEDTAVYYCARGYDVDWFVYWGQGTLVTVSS VL: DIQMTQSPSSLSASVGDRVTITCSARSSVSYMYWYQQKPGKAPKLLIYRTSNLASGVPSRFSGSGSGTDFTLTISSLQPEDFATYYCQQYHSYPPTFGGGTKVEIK", 0.000299],
  ["suPAR_DB01_E04 (scFv, V domains shown, screened as scFv) VH: QVQLVQSGAEVKKPGASVKVSCKASGYTFTGYYMHWVRQAPGQGLEWMGWIDHENGNTIYDQKFQGRVTMTRDTSTSTVYMELSSLRSEDTAVYYCARGYDVDWFVYWGQGTLVTVSS VL: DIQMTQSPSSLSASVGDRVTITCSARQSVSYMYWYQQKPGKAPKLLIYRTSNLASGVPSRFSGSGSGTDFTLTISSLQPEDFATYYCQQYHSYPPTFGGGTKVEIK", 0.00031]
]}
